# Experimental Target: His-tagged p53-Y220C DNA binding domain (Homo sapiens, UniProt P04637, Y220C)
# Assay Explanation: Biochemical p53-Y220C and DNA binding assay (HTRF)
# Applied Conditions: inflection point of 10 points dose titration, 4 parameter curve fit; p53-Y220C DBD 100 nM, biotinylated dsDNA 200 nM, 27 to 29° C.; read-out: HTRF IP
What EC50 was measured for each of the following?

Solved cases (3 shown):
[
  {
    "Smiles Text": "CN1CC[C@@H](Nc2cccc3c(CC(F)(F)F)c(/C=C/CNC(=O)C4CC4)sc23)[C@@H](F)C1",
    "Experimental Target": "His-tagged p53-Y220C DNA binding domain (Homo sapiens, UniProt P04637, Y220C)",
    "EC50": "100 to 1000 nM"
  },
  {
    "Smiles Text": "Cn1cnc(CO/N=C/c2sc3c(N[C@@H]4CNC[C@@H]4F)cccc3c2CC(F)(F)F)n1",
    "Experimental Target": "His-tagged p53-Y220C DNA binding domain (Homo sapiens, UniProt P04637, Y220C)",
    "EC50": "100 to 1000 nM"
  },
  {
    "Smiles Text": "F[C@H]1CNC[C@H]1Nc1cccc2c(CC(F)(F)F)c(/C=N/OCc3nc4ccccc4s3)sc12",
    "Experimental Target": "His-tagged p53-Y220C DNA binding domain (Homo sapiens, UniProt P04637, Y220C)",
    "EC50": "100 to 1000 nM"
  }
]

Reported EC50 for "F[C@H]1CNCC[C@H]1Nc1cccc2c(CC(F)(F)F)c(/C=N\OCC3CC3)sc12" was 100 to 1000 nM
